The reader will find reported cell number values listed item by item below.
Tested on: TDF
measurement.description: cell number relative to DMSO (% of DMSO); higher = more cells (less growth inhibition / toxicity)
test.conditions: concentration: 10 µM; 24 h

>  <compound>
O=c1cc(-c2ccccc2)oc2cc(O)cc(O)c12 [Chrysine]

>  <cell number>
99.8

$$$$
>  <compound>
Cc1ccc(Nc2nccc(N(C)c3ccc4c(C)n(C)nc4c3)n2)cc1S(N)(=O)=O [Pazopanib]

>  <cell number>
100

$$$$
>  <compound>
Cl.Cl.c1cnc(N2CCN(Cc3ccc4c(c3)OCO4)CC2)nc1 [Piribedil.2HCl]

>  <cell number>
98.2

$$$$
>  <compound>
CC1(C)C2CCC1(C(=O)O)C(=O)C2 (stereo unspecified) [Ketopinic acid]

>  <cell number>
102

$$$$
>  <compound>
Nc1c2c(nc3ccccc13)CCCC2 [Tacrine]

>  <cell number>
97.1

$$$$
>  <compound>
Cc1nc2ccccn2c(=O)c1CCN1CCC(C(=O)c2ccc(F)cc2)CC1 [Pirenperone]

>  <cell number>
100

$$$$

====

System: HCC1569
measurement.description: H1.0 immunofluorescence intensity relative to DMSO (% of DMSO); higher = stronger H1.0 induction, active = 140 or more
test.conditions: concentration: 10 µM; 24 h

>  <compound>
Nc1nc(Nc2ccccc2)nc2c1ncn2C1OC(CO)C(O)C1O (stereo not given)

>  <H1.0 immunofluorescence intensity>
102

$$$$
>  <compound>
CN1C(CC(=O)c2ccccc2)CCCC1CC(O)c1ccccc1 (stereo not given)

>  <H1.0 immunofluorescence intensity>
99.8

$$$$
>  <compound>
C[N+](C)(C)CCOC(N)=O

>  <H1.0 immunofluorescence intensity>
99.8

$$$$
>  <compound>
CC(C)CC(NC(=O)C(O)C(N)Cc1ccccc1)C(=O)O.Cl (stereo not given) [Epibestatin hydrochloride]

>  <H1.0 immunofluorescence intensity>
100

$$$$
>  <compound>
Cn1cc(-c2ccc3nnc(C(F)(F)c4ccc5ncccc5c4)n3n2)cn1

>  <H1.0 immunofluorescence intensity>
101

$$$$

====

System: HCC1569
measurement.description: cell number relative to DMSO (% of DMSO); higher = more cells (less growth inhibition / toxicity)
test.conditions: concentration: 10 µM; 24 h

>  <compound>
NC(N)=Nc1nc(CSCCC(N)=NS(N)(=O)=O)cs1 [Famotidine]

>  <assayed.system>
HCC1569

>  <cell number>
102

$$$$
>  <compound>
CCCNC(=O)NS(=O)(=O)c1ccc(Cl)cc1 [Chlorpropamide]

>  <assayed.system>
HCC1569

>  <cell number>
101

$$$$
>  <compound>
COc1ccccc1OCC(O)CO (centres undefined)

>  <assayed.system>
HCC1569

>  <cell number>
102

$$$$
>  <compound>
CCCOC(=O)c1c(-c2ccccc2)nc(CC)c(C(=O)SCC)c1CCC

>  <assayed.system>
HCC1569

>  <cell number>
102

$$$$
>  <compound>
O=C1CN2Cc3c(ccc(Cl)c3Cl)NC2=N1 [Anagrelide]

>  <assayed.system>
HCC1569

>  <cell number>
103

$$$$
>  <compound>
CC(=O)Nc1nc(C)c(S(=O)(=O)Nc2ccc(C(O)(C(F)(F)F)C(F)(F)F)cc2)s1

>  <assayed.system>
HCC1569

>  <cell number>
97.5

$$$$
>  <compound>
Cl.NCc1c[nH]c(=S)n1[C@H]1CCc2c(F)cc(F)cc2C1

>  <assayed.system>
HCC1569

>  <cell number>
99.6

$$$$
>  <compound>
CCC(=O)OC1(C(=O)SCF)C(C)CC2C3CC(F)C4=CC(=O)C=CC4(C)C3(F)C(O)CC21C (centres undefined)

>  <assayed.system>
HCC1569

>  <cell number>
98.9

$$$$
>  <compound>
CNCCC(Oc1ccccc1C)c1ccccc1 (centres undefined)

>  <assayed.system>
HCC1569

>  <cell number>
101

$$$$

====

The reader will find reported cell number values listed item by item below.
Test system: HCC1569
measurement.description: cell number relative to DMSO (% of DMSO); higher = more cells (less growth inhibition / toxicity)
test.conditions: concentration: 10 µM; 24 h

>  <compound>
O=C(O)C=CC(=O)O.c1cnc(N2CCN(Cc3ccc4c(c3)OCO4)CC2)nc1 [Piribedil maleate]

>  <cell number>
101

$$$$
>  <compound>
Cc1ccc(C)c(-c2cc(C(F)(F)F)nn2-c2ccc(S(N)(=O)=O)cc2)c1

>  <cell number>
101

$$$$
>  <compound>
CCC=CCC=CCC=CCC=CCC=CCCCCCC(=O)O [Docosapentaenoic acid]

>  <cell number>
100

$$$$

====

System: HCC1569
measurement.description: H1.0 immunofluorescence intensity relative to DMSO (% of DMSO); higher = stronger H1.0 induction, active = 140 or more
test.conditions: concentration: 10 µM; 24 h

>  <molecule>
CC1C(NC(=O)C(=NOC(C)(C)C(=O)O)c2csc(N)n2)C(=O)N1S(=O)(=O)O (centres undefined)

>  <H1.0 immunofluorescence intensity>
103 (inactive)

$$$$
>  <molecule>
COc1nccc(-c2c(-c3ccc(F)cc3)ncn2C2CCNCC2)n1

>  <H1.0 immunofluorescence intensity>
99.5 (inactive)

$$$$
>  <molecule>
COC(=O)c1cnn(-c2ccc(F)cc2F)c1/C=N/NC(=S)NC(C)(C)C

>  <H1.0 immunofluorescence intensity>
102 (inactive)

$$$$
>  <molecule>
CC[N+](C)(C)Cc1ccccc1Br.Cc1ccc(S(=O)(=O)[O-])cc1 [Bretylium tosylate]

>  <H1.0 immunofluorescence intensity>
103 (inactive)

$$$$

====

Test system: HCC1569
measurement.description: H1.0 immunofluorescence intensity relative to DMSO (% of DMSO); higher = stronger H1.0 induction, active = 140 or more
test.conditions: concentration: 10 µM; 24 h
The reader will find reported H1.0 immunofluorescence intensity values listed item by item below.

>  <molecule>
CCCc1nc(C)c2c(=O)nc(-c3cc(S(=O)(=O)N4CCN(CC)CC4)ccc3OCC)[nH]n12 [Vardenafil]

>  <H1.0 immunofluorescence intensity>
100

$$$$
>  <molecule>
CCCCCCC(O)CC=CCCCCCCCC(=O)O (centres undefined) [Ricinoleic acid]

>  <H1.0 immunofluorescence intensity>
101

$$$$
>  <molecule>
CCOC(=O)C1=CC2(CC)CCCN3CCc4c(n1c1ccccc41)C32 (centres undefined) [Vinpocetine]

>  <H1.0 immunofluorescence intensity>
98.8

$$$$
>  <molecule>
COc1ccc(-c2cc(=S)ss2)cc1 [Anethole-trithione]

>  <H1.0 immunofluorescence intensity>
103

$$$$
>  <molecule>
CC(C)NCC(O)COc1ccc(CCOCC2CC2)cc1.Cl (centres undefined) [Betaxolol.HCl]

>  <H1.0 immunofluorescence intensity>
102

$$$$
>  <molecule>
CCCCCCCCC=CCCCCCCCCCCCC(=O)O [13(E)-Docosenoic acid]

>  <H1.0 immunofluorescence intensity>
101

$$$$
>  <molecule>
NC/C=C/C(=O)O [(E)-4-amino-2-butenoic acid]

>  <H1.0 immunofluorescence intensity>
99.6

$$$$
>  <molecule>
Cl.Clc1cccc(Cl)c1NC1=NCCN1 [Clonidine.HCl]

>  <H1.0 immunofluorescence intensity>
101

$$$$
>  <molecule>
Br.Oc1ccc(C2CNCCc3c2cc(O)c(O)c3Cl)cc1 (centres undefined) [Fenoldopam bromide]

>  <H1.0 immunofluorescence intensity>
99.2

$$$$
>  <molecule>
CCCCCCCCCC(=O)O [Decanoic acid]

>  <H1.0 immunofluorescence intensity>
103

$$$$
>  <molecule>
NCCCCCC(=O)O [6-Aminohexanoic acid]

>  <H1.0 immunofluorescence intensity>
102

$$$$
>  <molecule>
CCCCCC(O)C=CC=CCCCCCCCC(=O)O (racemic)

>  <H1.0 immunofluorescence intensity>
101

$$$$
>  <molecule>
OC1(c2ccc(Cl)cc2)CCN(Cc2c[nH]c3ccccc23)CC1

>  <H1.0 immunofluorescence intensity>
103

$$$$
>  <molecule>
COc1ccccc1OCC(O)CN1CCN(CC(=O)Nc2c(C)cccc2C)CC1.Cl.Cl (centres undefined) [Ranolazine.2HCl]

>  <H1.0 immunofluorescence intensity>
102

$$$$

====

System: TDF
measurement.description: cell number relative to DMSO (% of DMSO); higher = more cells (less growth inhibition / toxicity)
test.conditions: concentration: 10 µM; 24 h
The reader will find reported cell number values listed item by item below.
outcome.measure: cell number

>  <compound>
COc1ccc(-c2coc3cc(O)ccc3c2=O)cc1

>  <assayed.system>
TDF

>  <number>
103

$$$$
>  <compound>
Cc1coc2c1C(=O)C(=O)c1c-2ccc2c1CCCC2(C)C

>  <assayed.system>
TDF

>  <number>
45.7

$$$$
>  <compound>
O=C(O)C=Cc1cc(Br)c(Br)c(Br)c1Br

>  <assayed.system>
TDF

>  <number>
113

$$$$
>  <compound>
Cl.O=C(CCCN1CCC(O)(c2cccc(C(F)(F)F)c2)CC1)c1ccc(F)cc1 [Trifluperidol hydrochloride]

>  <assayed.system>
TDF

>  <number>
111

$$$$
>  <compound>
CCCCCC=CCC=CCCCCCCCCCCCC(=O)O [13(Z),16(Z)-Docosadienoic acid]

>  <assayed.system>
TDF

>  <number>
109

$$$$
>  <compound>
Cl.NCCNC(=O)c1ccc(Cl)cc1 [Ro 16-6491 hydrochloride]

>  <assayed.system>
TDF

>  <number>
102

$$$$
>  <compound>
CC(C=CC1=C(C)CCCC1(C)C)=CC=CC(C)=CC(=O)Nc1ccc(O)cc1 [4-Hydroxyphenylretinamide]

>  <assayed.system>
TDF

>  <number>
112

$$$$
>  <compound>
CC(=O)c1ccc(NC2=C(Cl)C(=O)c3ccccc3C2=O)cc1

>  <assayed.system>
TDF

>  <number>
8.89

$$$$
>  <compound>
CCOC(=O)C1=C(C)NC(C)=C(C(=O)OC)C1c1cccc([N+](=O)[O-])c1 (stereo not drawn)

>  <assayed.system>
TDF

>  <number>
101

$$$$
>  <compound>
Cc1[nH]ccc2c1[nH]c1cc(=O)ccc12.Cl.O.O

>  <assayed.system>
TDF

>  <number>
94.7

$$$$
>  <compound>
O=Nc1ccc2oc(=O)ccc2c1

>  <assayed.system>
TDF

>  <number>
103

$$$$
>  <compound>
NS(=O)(=O)c1cc(C2(O)NC(=O)c3ccccc32)ccc1Cl (stereo not drawn)

>  <assayed.system>
TDF

>  <number>
98.1

$$$$
>  <compound>
NS(=O)(=O)c1ccc(N2CCN(CC[C@@H]3OCCc4ccccc43)CC2)cc1

>  <assayed.system>
TDF

>  <number>
102

$$$$
